- assayed target: TLR2 (Homo sapiens, UniProt O60603)
- Construct: host or cells: HEK293
- Sequence (O60603 21-784): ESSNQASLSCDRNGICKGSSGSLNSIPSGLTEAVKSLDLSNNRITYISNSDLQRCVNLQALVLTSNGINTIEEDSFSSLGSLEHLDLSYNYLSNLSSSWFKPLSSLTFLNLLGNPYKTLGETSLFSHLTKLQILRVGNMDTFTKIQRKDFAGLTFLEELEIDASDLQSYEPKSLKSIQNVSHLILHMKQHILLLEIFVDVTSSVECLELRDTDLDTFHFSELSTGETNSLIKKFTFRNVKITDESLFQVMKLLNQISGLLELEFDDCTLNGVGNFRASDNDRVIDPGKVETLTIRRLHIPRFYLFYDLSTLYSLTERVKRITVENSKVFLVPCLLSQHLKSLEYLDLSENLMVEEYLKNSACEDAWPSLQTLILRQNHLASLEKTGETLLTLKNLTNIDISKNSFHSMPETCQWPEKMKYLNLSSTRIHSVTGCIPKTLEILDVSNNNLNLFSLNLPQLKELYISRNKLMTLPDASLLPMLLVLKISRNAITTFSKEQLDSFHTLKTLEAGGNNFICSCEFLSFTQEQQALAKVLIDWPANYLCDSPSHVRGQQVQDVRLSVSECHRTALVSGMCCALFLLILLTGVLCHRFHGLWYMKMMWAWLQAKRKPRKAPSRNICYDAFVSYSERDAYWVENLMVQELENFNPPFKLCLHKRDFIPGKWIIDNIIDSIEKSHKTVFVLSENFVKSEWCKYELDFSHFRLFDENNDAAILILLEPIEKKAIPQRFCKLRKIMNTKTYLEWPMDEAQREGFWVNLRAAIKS
- procedure summary: HEK-TLR2 IL-8 secretion
- Format: cell-based
- test context: 41 ng/ml, 24 h
attribute measured: IL-8 secretion, mean
I'd appreciate it if you included the unit after the number.

So for CCCCCCCCCCCC(=O)O[C@H](CCCCCCCCCCC)CC(=O)N[C@H]1[C@H](OC[C@H]2O[C@H](OCC(O)CO)[C@H](NC(=O)C[C@H](O)CCCCCCCCCCC)[C@@H](O)[C@@H]2O)O[C@H](CO)[C@@H](OP(=O)(O)O)[C@@H]1O (stereo partly shown) [compound 19] , the logged IL-8 secretion, mean turned out to be 0.15 pg/mL

// IL-8 secretion, mean value for CCCCCCCCCCCC(=O)O[C@H](CCCCCCCCCCC)CC(=O)N[C@H]1[C@H](OC[C@H]2O[C@H](OCCOP(=O)(O)O)[C@H](NC(=O)C[C@H](O)CCCCCCCCCCC)[C@@H](O)[C@@H]2O)O[C@H](CO)[C@@H](OP(=O)(O)O)[C@@H]1O [compound 33] : 0.18 pg/mL

// recorded IL-8 secretion, mean for CCCCCCCCCCCC(=O)O[C@H](CCCCCCCCCCC)CC(=O)N[C@H]1[C@H](OC[C@H]2O[C@H](O)[C@H](NC(=O)C[C@H](O)CCCCCCCCCCC)[C@@H](O)[C@@H]2O)O[C@H](CO)[C@@H](OP(=O)(O)O)[C@@H]1O [compound 16] : 0.09 pg/mL

IL-8 secretion, mean in this record for CCCCCCCCCCCC(=O)O[C@H](CCCCCCCCCCC)CC(=O)N[C@H]1[C@H](OC[C@H]2O[C@H](OCCC)[C@H](NC(=O)C[C@H](O)CCCCCCCCCCC)[C@@H](O)[C@@H]2O)O[C@H](CO)[C@@H](OP(=O)(O)O)[C@@H]1O [compound 17] : 0.20 pg/mL
